Tested on: MG63 cells
Assay: pRB phosphorylation level, immunofluorescence staining quantified with ImageJ, osteosarcoma cells
Assay type: cell-based, human
Details: Table 4; MG63 cells; cyclic GFR-binding peptide in association with SiRNA Integrin alpha 3 and SiRNA Integrin beta 1; 400 ng/mL; 24 hours
Where no end group is shown, it is not given here.

# sequence data, pRB (%)
data = [
    ("TPTSSSPINTLYFDDMGVPTYGKIPSSVVDDEYDKVV (not fully specified; also: cyclic peptide) [SEQ ID NO: 38207]", "13%"),
    ("VPQAAEPLPMLYYDKGVVTYEQLSNAAVRSDKGVVTY (also: cyclic peptide) [SEQ ID NO: 38210]", "12%"),
    ("VPTVVSPISMLYIDDMGVPTYKQYEVVVVEDDMGVPT (also: cyclic peptide) [SEQ ID NO: 38208]", "9%"),
    ("VPTDDSATSTLYYDKGVVTYLRKHRDDEHSDKGVVTY (also: cyclic peptide) [SEQ ID NO: 38214]", "18%"),
]
